fluorescence ratio reference
Assay: Cy5 fluorescence interference with SSB-bound oligo, artefact control for HCV NS3 helicase inhibitor project, biochemical, NIH Clinical Collection, E. coli SSB (AID 743268)
// keep it numeric: no unit symbol after the value

Examples with answers:
- structure-smiles-string: "C[C@@H](O)[C@H]1C(=O)N2C(C(=O)O)=C(S[C@@H]3CN[C@H](C(=O)N(C)C)C3)[C@H](C)[C@H]12"
  fluorescence ratio: 1.04
- structure-smiles-string: "NNC(=O)c1ccncc1"
  fluorescence ratio: 1.01

q: fluorescence ratio for CN(C)CCN(Cc1ccccc1)c1ccccn1 ?
a: 1.01

---

Reported inhibition values for a set of compounds
Assay: growth inhibition of BT084 medulloblastoma cells, cell-based, ICGC_MB145, cisplatin and BGB IC40 combos (AID 1671461);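 further: cells exposed to drugs for 96 hours; 0% = vehicle DMSO and 100% = high DMSO full killing control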
Conditions: drug combinations, cisplatin combination, at 5 µM, stronger effect = higher value
Write the figure, then the unit, nothing else.

Would you please look over these solved cases?
- structure-smiles-string: "CC(=O)OCC(CCn1cnc2cnc(N)nc21)COC(C)=O"
  inhibition: "-19.5%"
- structure-smiles-string: "O=c1[nH]cc(F)c(=O)[nH]1"
  inhibition: "-20.1%"
- structure-smiles-string: "O=C(O)CCCc1ccccc1"
  inhibition: "-2.13%"

q: Which measured inhibition value corresponds to O=C1c2c(O)ccc(O)c2C(=O)c2c(NCCNCCO)ccc(NCCNCCO)c21 ?
a: 49.8%
